Target: Receptor-type tyrosine-protein phosphatase F (Homo sapiens, UniProt P10586)
Sequence (P10586 whole entry): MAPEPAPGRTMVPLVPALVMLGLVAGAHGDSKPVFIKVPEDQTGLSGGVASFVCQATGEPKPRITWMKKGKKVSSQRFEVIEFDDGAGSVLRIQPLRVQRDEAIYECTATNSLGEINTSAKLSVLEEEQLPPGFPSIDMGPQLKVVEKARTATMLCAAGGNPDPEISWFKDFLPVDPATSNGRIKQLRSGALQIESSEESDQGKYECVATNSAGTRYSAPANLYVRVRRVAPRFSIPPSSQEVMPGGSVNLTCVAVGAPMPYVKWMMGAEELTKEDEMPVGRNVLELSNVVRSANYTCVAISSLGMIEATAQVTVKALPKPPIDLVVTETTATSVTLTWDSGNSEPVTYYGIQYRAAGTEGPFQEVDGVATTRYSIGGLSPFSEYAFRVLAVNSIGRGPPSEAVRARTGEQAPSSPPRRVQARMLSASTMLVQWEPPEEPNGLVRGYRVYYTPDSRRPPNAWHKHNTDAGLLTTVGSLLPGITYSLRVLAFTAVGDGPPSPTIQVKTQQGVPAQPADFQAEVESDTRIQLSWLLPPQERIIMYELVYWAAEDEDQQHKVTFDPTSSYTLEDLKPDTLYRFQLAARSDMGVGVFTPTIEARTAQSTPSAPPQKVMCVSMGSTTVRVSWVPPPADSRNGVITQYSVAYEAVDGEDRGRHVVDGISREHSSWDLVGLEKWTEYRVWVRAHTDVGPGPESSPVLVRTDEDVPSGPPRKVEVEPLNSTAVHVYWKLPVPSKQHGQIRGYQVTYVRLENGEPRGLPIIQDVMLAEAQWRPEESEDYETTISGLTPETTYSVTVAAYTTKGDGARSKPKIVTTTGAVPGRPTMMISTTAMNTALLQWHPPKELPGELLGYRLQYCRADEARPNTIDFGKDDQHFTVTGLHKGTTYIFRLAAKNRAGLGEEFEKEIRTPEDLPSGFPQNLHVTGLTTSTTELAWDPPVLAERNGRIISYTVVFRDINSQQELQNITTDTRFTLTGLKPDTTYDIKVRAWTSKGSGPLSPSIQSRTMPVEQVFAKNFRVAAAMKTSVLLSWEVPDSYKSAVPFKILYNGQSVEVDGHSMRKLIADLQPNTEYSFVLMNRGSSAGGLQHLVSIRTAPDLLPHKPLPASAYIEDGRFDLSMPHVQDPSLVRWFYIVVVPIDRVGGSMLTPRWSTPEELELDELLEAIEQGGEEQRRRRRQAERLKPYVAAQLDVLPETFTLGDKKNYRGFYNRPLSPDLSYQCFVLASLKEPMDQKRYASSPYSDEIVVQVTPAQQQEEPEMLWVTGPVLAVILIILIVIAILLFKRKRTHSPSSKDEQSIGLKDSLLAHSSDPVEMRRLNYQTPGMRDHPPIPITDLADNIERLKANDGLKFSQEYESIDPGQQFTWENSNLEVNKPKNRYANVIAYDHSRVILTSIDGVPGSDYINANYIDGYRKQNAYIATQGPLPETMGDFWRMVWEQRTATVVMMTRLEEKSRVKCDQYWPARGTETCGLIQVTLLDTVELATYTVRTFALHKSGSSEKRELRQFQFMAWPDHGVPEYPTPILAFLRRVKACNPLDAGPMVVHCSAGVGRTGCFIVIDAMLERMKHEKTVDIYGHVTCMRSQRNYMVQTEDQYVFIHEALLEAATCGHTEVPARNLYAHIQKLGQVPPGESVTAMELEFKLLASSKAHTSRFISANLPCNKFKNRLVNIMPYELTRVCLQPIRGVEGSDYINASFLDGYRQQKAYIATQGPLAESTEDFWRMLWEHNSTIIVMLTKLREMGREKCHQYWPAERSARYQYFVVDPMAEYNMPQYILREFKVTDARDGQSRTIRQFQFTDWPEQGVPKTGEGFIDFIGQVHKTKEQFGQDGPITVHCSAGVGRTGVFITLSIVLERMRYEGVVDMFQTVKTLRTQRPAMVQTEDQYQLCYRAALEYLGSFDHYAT
pIC50: −log10 of the molar value.
Measured Property: pIC50

Q: Would you please give the reported pIC50 of "CNC(=O)[C@@H]1Cc2ccc(NS(=O)(=O)O)cc2CN1C(=O)CCc1cccc(NS(=O)(=O)O)c1" with Receptor-type tyrosine-protein phosphatase F (Homo sapiens, UniProt P10586)?
Result: < 3.30

====

Target sequence: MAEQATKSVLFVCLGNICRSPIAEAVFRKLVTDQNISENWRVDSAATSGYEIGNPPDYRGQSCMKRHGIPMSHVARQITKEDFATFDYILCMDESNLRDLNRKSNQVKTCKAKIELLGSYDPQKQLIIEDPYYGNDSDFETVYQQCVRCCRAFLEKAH
Measured Property: IC50 (µM)
Kindly provide the numeric value in µM only, without the unit symbol.

Q: Read the entry "CNC(=O)[C@@H]1Cc2ccc(NS(=O)(=O)O)cc2CN1C(=O)CCc1cccc(NS(=O)(=O)O)c1" and write its reported IC50.
Result: 3.1

====

Molecular target: Tyrosine-protein phosphatase non-receptor type 2 (Homo sapiens)
Sequence (P17706 whole entry): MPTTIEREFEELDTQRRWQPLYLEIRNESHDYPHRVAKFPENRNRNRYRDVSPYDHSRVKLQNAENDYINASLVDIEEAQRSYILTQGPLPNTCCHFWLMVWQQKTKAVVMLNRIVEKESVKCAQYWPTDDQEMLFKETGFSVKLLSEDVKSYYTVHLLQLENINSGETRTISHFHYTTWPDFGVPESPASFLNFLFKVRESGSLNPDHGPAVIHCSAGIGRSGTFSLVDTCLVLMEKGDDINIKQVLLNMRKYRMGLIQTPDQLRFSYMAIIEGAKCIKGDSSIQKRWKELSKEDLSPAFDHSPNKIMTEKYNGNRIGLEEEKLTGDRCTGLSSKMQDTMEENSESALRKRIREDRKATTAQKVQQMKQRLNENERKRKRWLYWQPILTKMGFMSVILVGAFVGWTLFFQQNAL
Assay: Inhibition of TCPTP
Measured Property: log10 of IC50 (log10 of the value in µM)
Answers are given as log10 of IC50 in µM.

Recorded log10 of IC50, per entry:
Substance Smiles | Measured Number
CNC(=O)[C@H](Cc1ccc(NS(=O)(=O)O)cc1)NC(=O)OC(C)(C)C | 1.90
O=C(CCc1cccc(NS(=O)(=O)O)c1)N1CCc2ccc(NS(=O)(=O)O)cc2C1 | 1.84
CNC(=O)[C@@H]1Cc2ccc(NS(=O)(=O)O)cc2CN1C(=O)CCc1cccc(NS(=O)(=O)O)c1 | 0.97

Q: Read the entry "CNC(=O)[C@@H]1Cc2ccc(NS(=O)(=O)O)cc2CN1C(=O)OC(C)(C)C" and write its reported log10 of IC50.
Result: 2.23

Q: Read the entry "O=C(CCc1cccc(NS(=O)(=O)O)c1)NCc1cccc(NS(=O)(=O)O)c1" and write its reported log10 of IC50.
Result: 2.31

====

Observed pIC50, system UniProtKB P18031.
Answer as the number alone; pIC50 is minus log10 of concentration in mol/L.

Recorded pIC50, per entry:
Substance Smiles | pIC50
CC(C)COC(=O)[C@@H]1Cc2ccc(NS(=O)(=O)O)cc2CN1C(=O)OC(C)(C)C | 4.78
CNC(=O)[C@@H]1Cc2ccc(NS(=O)(=O)O)cc2CN1C(=O)CCc1cc(NS(C)(=O)=O)cc(C(F)(F)F)c1 | 3.74

Consider the additional compound presented here.
Q: Read the entry "O=C(CCc1cccc(NS(=O)(=O)O)c1)N1CCc2ccc(NS(=O)(=O)O)cc2C1" and write its reported pIC50.
Result: 4.59

====

Biological target: Tyrosine-protein phosphatase non-receptor type 1 (Homo sapiens)
Sequence (P18031 whole entry): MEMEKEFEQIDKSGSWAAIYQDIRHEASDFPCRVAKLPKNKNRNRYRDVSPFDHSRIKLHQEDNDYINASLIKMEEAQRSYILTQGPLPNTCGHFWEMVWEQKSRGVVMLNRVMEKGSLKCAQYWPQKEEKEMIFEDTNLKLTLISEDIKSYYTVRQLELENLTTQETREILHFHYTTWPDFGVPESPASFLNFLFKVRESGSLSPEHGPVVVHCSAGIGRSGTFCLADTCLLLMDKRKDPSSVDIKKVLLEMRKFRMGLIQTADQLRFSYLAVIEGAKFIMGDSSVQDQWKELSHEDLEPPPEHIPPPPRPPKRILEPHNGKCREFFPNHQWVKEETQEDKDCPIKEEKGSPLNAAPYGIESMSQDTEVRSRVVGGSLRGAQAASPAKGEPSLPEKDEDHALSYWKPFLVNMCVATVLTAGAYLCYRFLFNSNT
Measured Property: IC50 (µM)
Kindly provide the numeric value in µM only, without the unit symbol.

Recorded IC50, per entry:
Substance Smiles | Measured Number
COC(=O)[C@@H]1Cc2ccc(NS(=O)(=O)O)cc2CN1C(=O)OC(C)(C)C | 19
CNC(=O)[C@@H]1Cc2ccc(NS(=O)(=O)O)cc2CN1C(=O)CCc1cccc(C(F)(F)F)c1 | 146
CNC(=O)[C@@H]1Cc2ccc(NS(=O)(=O)O)cc2CN1C(=O)OC(C)(C)C | 42.5

Q: Would you please give the reported IC50 of "CNC(=O)[C@@H]1Cc2ccc(NS(=O)(=O)O)cc2CN1C(=O)COc1ccccc1" with Tyrosine-protein phosphatase non-receptor type 1 (Homo sapiens)?
Result: 95.3

Q: Would you please give the reported IC50 of "CNC(=O)[C@@H]1Cc2ccc(NS(=O)(=O)O)cc2CN1C(=O)/C=C/c1coc2ccccc12" with Tyrosine-protein phosphatase non-receptor type 1 (Homo sapiens)?
Result: 24.9

Q: Would you please give the reported IC50 of "CNC(=O)[C@@H]1Cc2ccc(NS(=O)(=O)O)cc2CN1C(=O)CCC(=O)O" with Tyrosine-protein phosphatase non-receptor type 1 (Homo sapiens)?
Result: 154

Q: Would you please give the reported IC50 of "CNC(=O)[C@@H]1Cc2ccc(NS(=O)(=O)O)cc2CN1C(=O)NCc1ccccc1" with Tyrosine-protein phosphatase non-receptor type 1 (Homo sapiens)?
Result: 164

Q: Would you please give the reported IC50 of "CNC(=O)[C@H](Cc1ccc(NS(=O)(=O)O)cc1)NC(=O)OC(C)(C)C" with Tyrosine-protein phosphatase non-receptor type 1 (Homo sapiens)?
Result: 39.6

Q: Would you please give the reported IC50 of "CNC(=O)[C@@H]1Cc2ccc(NS(=O)(=O)O)cc2CN1C(=O)c1ccccc1" with Tyrosine-protein phosphatase non-receptor type 1 (Homo sapiens)?
Result: 286

====

Test: Inhibition of STP1
Measured Property: pIC50
Answer as the number alone; pIC50 is minus log10 of concentration in mol/L.

Q: Read the entry "CNC(=O)[C@@H]1Cc2ccc(NS(=O)(=O)O)cc2CN1C(=O)CCc1cccc(NS(=O)(=O)O)c1" and write its reported pIC50.
Result: 5.09
